FYI, the data here is from patent US20250152746A1.

tested on: PCSK9 gene; test: PCSK9 gRNA/SpCas9 editing in primary human hepatocytes (Tables 2, 4); type: cell-based; settings: 100 ng/RNA/mL; SpCas9 mRNA MS002 1:1 by weight
In the oligonucleotide strings, read from the 5' end, every base follows the letter of its sugar. An asterisk marks phosphorothioate; unmarked linkages are phosphodiester. Other units and linkages are bracketed, terminal groups are in braces. A string of capitals states the bases alone. m = 2'-O-methyl; r = 2'-OH (RNA)
Value kind: Human Primary Hepatocyte Editing % 100 (%)
A number alone suffices; assume %.

Tell us which Human Primary Hepatocyte Editing % 100 value is on record for GA240: PCSK9 gRNA; protospacer TGCCAGCGCCTGGCGAGGGC (SEQ ID NO: 233) (nucleic acid, sugars from the 5' end m3 r94 m3, linkages s3 o93 s3 (s phosphorothioate, o phosphodiester), T or U not given here) guide: UGCCAGCGCCUGGCGAGGGCGUUUUAGAGCUAGAAAUAGCAAGUUAAAAUAAGGCUAGUCCGUUAUCAACUUGAAAAAGUGGCACCGAGUCGGUGCUUUU
1.05

Tell us which Human Primary Hepatocyte Editing % 100 value is on record for GA228: PCSK9 gRNA; protospacer CGGCTGTACCCACCCGCCAG (SEQ ID NO: 222) (nucleic acid, sugars from the 5' end m3 r94 m3, linkages s3 o93 s3 (s phosphorothioate, o phosphodiester), T or U not given here) guide: CGGCUGUACCCACCCGCCAGGUUUUAGAGCUAGAAAUAGCAAGUUAAAAUAAGGCUAGUCCGUUAUCAACUUGAAAAAGUGGCACCGAGUCGGUGCUUUU
5.9

Tell us which Human Primary Hepatocyte Editing % 100 value is on record for GA204: PCSK9 gRNA; protospacer CACTCTGTATGCTGGTGTCT (SEQ ID NO: 198) (nucleic acid, sugars from the 5' end m3 r94 m3, linkages s3 o93 s3 (s phosphorothioate, o phosphodiester), T or U not given here) guide: CACUCUGUAUGCUGGUGUCUGUUUUAGAGCUAGAAAUAGCAAGUUAAAAUAAGGCUAGUCCGUUAUCAACUUGAAAAAGUGGCACCGAGUCGGUGCUUUU
1.27

Tell us which Human Primary Hepatocyte Editing % 100 value is on record for GA245: PCSK9 gRNA; protospacer GTGCTGCTGCCCCTGGCGGG (SEQ ID NO: 238) (nucleic acid, sugars from the 5' end m3 r94 m3, linkages s3 o93 s3 (s phosphorothioate, o phosphodiester), T or U not given here) guide: GUGCUGCUGCCCCUGGCGGGGUUUUAGAGCUAGAAAUAGCAAGUUAAAAUAAGGCUAGUCCGUUAUCAACUUGAAAAAGUGGCACCGAGUCGGUGCUUUU
1.68

Tell us which Human Primary Hepatocyte Editing % 100 value is on record for GA161: PCSK9 gRNA; protospacer GGACGAGGACGGCGACTACG (SEQ ID NO: 155) (nucleic acid) guide: mG*mG*mA*rCrGrArGrGrArCrGrGrCrGrArCrUrArCrGrGrUrUrUrUrArGrArGrCrUrArGrArArArUrArGrCrArArGrUrUrArArArArUrArArGrGrCrUrArGrUrCrCrGrUrUrArUrCrArArCrUrUrGrArArArArArGrUrGrGrCrArCrCrGrArGrUrCrGrGrUrGrCrU*mU*mU*mU
3.65

Tell us which Human Primary Hepatocyte Editing % 100 value is on record for GA172: PCSK9 gRNA; protospacer CAGTGCGCTCTGACTGCGAG (SEQ ID NO: 166) (nucleic acid, sugars from the 5' end m3 r94 m3, linkages s3 o93 s3 (s phosphorothioate, o phosphodiester), T or U not given here) guide: CAGUGCGCUCUGACUGCGAGGUUUUAGAGCUAGAAAUAGCAAGUUAAAAUAAGGCUAGUCCGUUAUCAACUUGAAAAAGUGGCACCGAGUCGGUGCUUUU
0.32
